In this section, each of the molecules is paired with its reported melting point.
Structures can show the parent of a compound that is named as a salt.
Number first, unit second: that is the form wanted.

Cc1cn(-c2ccc3n(c2=O)CCN(C(C)c2cccc(C(F)(F)F)c2)C3=O)cn1 (single isomer, unassigned) [11b] :: 181 °C

Consider Cc1cn(-c2ccc3n(c2=O)CCN(Cc2c[nH]c4c(Cl)cc(Cl)cc24)C3=O)cn1 . Its measured melting point is 208 °C

The reported melting point of the molecule Cc1cn(-c2ccc3n(c2=O)C[C@@H](C)N(Cc2cc(Br)cc(C(F)(F)F)c2)C3=O)cn1 (as salt: HCl) was 204.5 °C

Entry COc1ccc(CN2C(=O)c3ccc(-n4cnc(C)c4)c(=O)n3C[C@H]2C)cc1C(F)(F)F ; melting point = 140.2 °C

Entry Cc1cn(-c2ccc3n(c2=O)CCN(Cc2cccc(OC(F)(F)F)c2)C3=O)cn1 ; melting point = 163.4 °C

Lab note: Cc1cn(-c2ccc3n(c2=O)CCN(Cc2cccc(N4CCOCC4)c2)C3=O)cn1 gave melting point of 181.6 °C

Lookup result for Cc1cn(-c2ccc3n(c2=O)C[C@@H](C)N(Cc2cc(N4CCC(C(F)(F)F)CC4)ccc2Cl)C3=O)cn1 (as salt: HCl) ; measured melting point: 160.6 °C

----------
Target: γ-secretase (Homo sapiens)
Construct: endogenous in cells; host or cells: SKNBE2 human neuroblastoma cells (carrying hAPP 695 wild type as substrate)
Experiment: Screening for γ-secretase-modulating activity: Aβtotal in supernatant of SKNBE2 cells carrying hAPP 695 wild type (Alphalisa)
Type: cell-based
Details: SKNBE2 human neuroblastoma cells carrying hAPP 695 wild type, overnight incubation, Aβtotal in cell supernatant
Description: Screening was carried out using SKNBE2 human neuroblastoma cells carrying the hAPP 695—wild type, grown in Dulbecco's Modified Eagle's Medium/Nutrient mixture F-12 (DMEM/NUT-mix F-12) (HAM) provided by Invitrogen (cat no. 10371-029) containing 5% Serum/Fe supplemented with 1% non-essential amino acids, 1-glutamine 2 mM, Hepes 15 mM, penicillin 50 U/ml (units/ml) en streptomycin 50 μg/ml. Cells were grown to near confluency. […]
metric-name: IC50

CCC(c1cc(OC)cc(C(F)(F)F)c1)N1C(=O)c2ccc(-n3cnc(C)c3)c(=O)n2C[C@H]1C (single isomer, unassigned) [compound 141] :: > 10 µM
Cc1cn(-c2ccc3n(c2=O)CCN(Cc2cccc(-c4ccc(F)cc4C(F)(F)F)c2)C3=O)cn1 [compound 90] :: > 10 µM
Cc1cn(-c2ccc3n(c2=O)CCN(Cc2cccc(C(F)(F)F)c2C)C3=O)cn1 [compound 58] :: > 10 µM
CCn1cc(C(C)N2C(=O)c3ccc(-n4cnc(C)c4)c(=O)n3CC2C)c2cc(Cl)ccc21 (single isomer, unassigned) [compound 249] :: 8 µM
Cc1cn(-c2ccc3n(c2=O)C[C@@H](C)N(Cc2cc(C(F)(F)F)ccc2F)C3=O)cn1 [compound 70] :: > 10 µM
CCn1cc(CN2C(=O)c3ccc(-n4cnc(C)c4)c(=O)n3C[C@H]2C)c2cc(C3CC3)ccc21 [compound 247] :: 6 µM

Then there is this molecule:
Quick note, IC50 for Cc1cn(-c2ccc3n(c2=O)C[C@@H](C)N(Cc2cccc(Cl)c2)C3=O)cn1 [compound 24] landed at > 10 µM

----------
target: γ-secretase (Homo sapiens); construct: endogenous in cells; host or cells: SKNBE2 human neuroblastoma cells (carrying hAPP 695 wild type as substrate); assay: Screening for γ-secretase-modulating activity: Aβtotal in supernatant of SKNBE2 cells carrying hAPP 695 wild type (Alphalisa); format: cell-based; conditions: SKNBE2 human neuroblastoma cells carrying hAPP 695 wild type, overnight incubation, Aβtotal in cell supernatant
metric-name: IC50

In the examples that follow, each entry is paired with its recorded IC50.
Cc1ccc2cc(CN3CCn4c(ccc(-n5cnc(C)c5)c4=O)C3=O)ccc2c1 [compound 94] :: > 10 µM
Cc1cn(-c2ccc3n(c2=O)CC(C)N(C(C)c2c[nH]c4cc(F)c(Cl)cc24)C3=O)cn1 (single isomer, unassigned) [compound 187] :: 6.92 µM
COc1ccc(CN2CCn3c(ccc(-n4cnc(C)c4)c3=O)C2=O)cc1C(F)(F)F [compound 69] :: > 10 µM

Could you now look at the following compound, please?
The recorded IC50 for Cc1cn(-c2ccc3n(c2=O)CCN(CC2(c4ccc(Cl)cc4)CC2)C3=O)cn1 [compound 29] is > 10 µM

----------
Listed compounds paired with reported pIC50
target: γ-secretase (Homo sapiens, UniProt P49768); construct: endogenous in cells; host or cells: SKNBE2 human neuroblastoma cells (carrying hAPP 695 wild type as substrate); test: Screening for γ-secretase-modulating activity: Aβ42 in supernatant of SKNBE2 cells carrying hAPP 695 wild type (Alphalisa); assay type: cell-based; conditions: SKNBE2 human neuroblastoma cells carrying hAPP 695 wild type, overnight incubation, Aβ42 in cell supernatant
# log scale: pIC50 equals minus log10 of the concentration in mol/L

Worked set:
Cc1cn(-c2ccc3n(c2=O)CCN(CCC2CCCCC2)C3=O)cn1 :: 5.77
Cc1cn(-c2ccc3n(c2=O)C[C@@H](C)N(Cc2c[nH]c4c(C(F)(F)F)cc(F)cc24)C3=O)cn1 :: 7.40
Cc1cn(-c2ccc3n(c2=O)C[C@@H](C)N(Cc2cccc(-n4nc(C)cc4C)c2)C3=O)cn1 :: 5.87
Cc1cn(-c2ccc3n(c2=O)CCN(Cc2cccc(C(F)(F)F)c2F)C3=O)cn1 :: 5.77
Cc1nccn1-c1ccc2n(c1=O)CCN(Cc1cccc(-c3ccccc3)c1)C2=O :: 5.32
CCn1cc(CN2C(=O)c3ccc(-n4cnc(C)c4)c(=O)n3CC2C)c2ccc(C(F)(F)F)cc21 (centres unmarked) :: 7.70
Cc1cn(-c2ccc3n(c2=O)C[C@@H](C)N(Cc2c[nH]c4c(I)cccc24)C3=O)cn1 :: 7.22

Shift focus to the following entry.
Looking up Cc1cn(-c2ccc3n(c2=O)CC(C)N(Cc2c(C)n(C)c4ccc(C(F)(F)F)cc24)C3=O)cn1 (centres unmarked) , I see its pIC50 listed as 8.00

----------
target: γ-secretase (Homo sapiens, UniProt P49768); construct: endogenous in cells; host or cells: SKNBE2 human neuroblastoma cells (carrying hAPP 695 wild type as substrate); test: Screening for γ-secretase-modulating activity: Aβ42 in supernatant of SKNBE2 cells carrying hAPP 695 wild type (Alphalisa); type: cell-based; details: SKNBE2 human neuroblastoma cells carrying hAPP 695 wild type, overnight incubation, Aβ42 in cell supernatant
Reported values of pIC50 for individual entries
Reminder that pIC50 means the negative base-10 logarithm of the concentration expressed in mol/L.

COc1cc(C)c(CN2C(=O)c3ccc(-n4cnc(C)c4)c(=O)n3C[C@H]2C)cc1C(C)C :: 6.72

For Cc1cn(-c2ccc3n(c2=O)C[C@@H](C)N(Cc2cc(CC4CC4)cc(C(F)(F)F)c2)C3=O)cn1 the compound record lists pIC50 as 7.40

Entry Cc1cn(-c2ccc3n(c2=O)CCN(Cc2cccc(C(F)(F)F)c2Cl)C3=O)cn1 , pIC50 reported as 6.16

Consider CCn1cc(C(C)N2C(=O)c3ccc(-n4cnc(C)c4)c(=O)n3CC2C)c2cc(Cl)ccc21 (single isomer, unassigned) [compound 243] . Its measured pIC50 is 8.00

Recorded pIC50 (compound Cc1cn(-c2ccc3n(c2=O)CC(C)N(C(C)c2cc(C(F)(F)F)cc(C(F)(F)F)c2)C3=O)cn1.Cl (single isomer, unassigned) [compound 112] ): 7.15

According to the records, this compound Cc1cn(-c2ccc3n(c2=O)C[C@@H](C)N(Cc2cn(C)c4cc(F)c(C5CC5)cc24)C3=O)cn1 displays pIC50 of 8.00

For record Cc1cn(-c2ccc3n(c2=O)CCN(Cc2cccc(-c4ccccc4)c2)C3=O)c(C)n1 the listed pIC50 is 5.11

----------
Label rule, in plain words: melting point of 200 °C and up is 1.0, under 200 °C is 0.0.

Cc1cn(-c2ccc3n(c2=O)C[C@@H](C)N(Cc2cn(C(C)C)c4cc(Br)ccc24)C3=O)cn1 [compound 200] :: 0.0

Decide: melting point of Cc1cn(-c2ccc3n(c2=O)C[C@@H](C)N(CCc2cc(Cl)ccc2Cl)C3=O)cn1 [compound 230] >= 200 °C? 0.0

Check if melting point >= 200 °C (inclusive). Item: COc1ccc(CN2CCn3c(ccc(-n4cnc(C)c4)c3=O)C2=O)cc1C(F)(F)F [compound 69] 0.0

Say whether Cc1cn(-c2ccc3n(c2=O)CCN(C2CCCc4ccc(C(F)(F)F)cc42)C3=O)cn1 (stereo not shown) [compound 106] shows melting point of 200 °C or more. 0.0

Check this compound for melting point at or above 200 °C: Cc1cn(-c2ccc3n(c2=O)CCN(Cc2cc(C(F)(F)F)cc(C(F)(F)F)c2)C3=O)cn1 [compound 53] 1.0
